The reported numbers originate from patent US7615361B2.

Experiment: MTT reduction
Type: cell-based
Details: human, HUVEC, read-out: MTT TC50
Quantity Name: CC50 at 24 h (µM)
Give bare numbers, in µM.

Request the reported CC50 at 24 h associated with CC[C@@]1(O)C(=O)OCc2c1cc1n(c2=O)Cc2cc3ccccc3nc2-1 [CAMPTOTHECIN, Camptothecin]
41

---

Can you tell me CC50 at 24 h for the items I'm about to list?
Experiment: Cell number (propidium iodide)
Type: cell-based, rat
Details: rat, H4IIE rat hepatoma cells, H4IIE, 24 HR exposure; read-out: Cell Number TC50
Numbers only, in µM.

>>> observed_measurement("CC[C@@]1(O)C(=O)OCc2c1cc1n(c2=O)Cc2cc3ccccc3nc2-1")
4

Attention now shifts to the item below.
Request the reported CC50 at 24 h associated with `COc1cccc2c1C(=O)c1c(O)c3c(c(O)c1C2=O)C[C@@](O)(C(=O)CO)C[C@@H]3O[C@H]1C[C@H](N)[C@H](O[C@@H]2CCCCO2)[C@H](C)O1`
8

---

Assay: MemTox membrane leakage (AK / α-GST)
Format: cell-based, rat
Settings: neonatal rat cardiomyocytes; rat cardiomyocytes (CM), 24 HR exposure; read-out: MemTox TC50
Experimental: One test compound (Compound A) was received as dry powder and evaluated for potential cytotoxicity in a battery of in vitro assays. The compound was tested using both rat cardiomyocytes (CM) from rat neonates and a rat hepatoma (H4IIE) cell line. […] General cytotoxicity was evaluated by monitoring membrane integrity, mitochondrial function, cell proliferation, oxidative stress, and apoptosis. […] The means of each exposure group (n=3-7) were calculated for each assay performed. […]
Quantity Name: CC50 at 24 h (µM)
Numbers only, in µM.

Request the reported CC50 at 24 h associated with `COc1cccc2c1C(=O)c1c(O)c3c(c(O)c1C2=O)C[C@@](O)(C(=O)CO)C[C@@H]3O[C@H]1C[C@H](N)[C@H](O[C@@H]2CCCCO2)[C@H](C)O1`
6

---

System: H4IIE cells
Assay: Predicted Ctox from Tox-Panel
Type: cell-based, rat
Conditions: 24 HR, estimated sustained plasma concentration where toxicity would be expected in vivo
Can you tell me Predicted Ctox for the items I'm about to list?
One number for each entry, in µM.

Batch of 6 compounds: report Predicted Ctox for each.
1. Nc1nc(NC2CC2)c2ncn([C@H]3C=C[C@@H](CO)C3)c2n1
2. CC(=O)[C@]1(O)Cc2c(O)c3c(c(O)c2[C@@H](O[C@H]2C[C@H](N)[C@H](O)[C@H](C)O2)C1)C(=O)c1ccccc1C3=O
3. CC(C)c1nc(CN(C)C(=O)N[C@H](C(=O)N[C@@H](Cc2ccccc2)C[C@H](O)[C@H](Cc2ccccc2)NC(=O)OCc2cncs2)C(C)C)cs1
4. COc1cccc2c1C(=O)c1c(O)c3c(c(O)c1C2=O)C[C@@](O)(C(=O)CO)C[C@@H]3O[C@H]1C[C@H](N)[C@H](O[C@@H]2CCCCO2)[C@H](C)O1
5. CC(C)(C)NC(=O)[C@@H]1CN(Cc2cccnc2)CCN1C[C@@H](O)C[C@@H](Cc1ccccc1)C(=O)N[C@H]1c2ccccc2C[C@H]1O
6. Cc1cccc(C)c1OCC(=O)N[C@@H](Cc1ccccc1)[C@@H](O)C[C@H](Cc1ccccc1)NC(=O)[C@H](C(C)C)N1CCCNC1=O

[65, 1, 52, 5, 90, 60]

---

Test: MTT reduction
Assay type: cell-based, rat
Conditions: rat, MTT TC50
Experimental: One test compound (Compound A) was received as dry powder and evaluated for potential cytotoxicity in a battery of in vitro assays. The compound was tested using both rat cardiomyocytes (CM) from rat neonates and a rat hepatoma (H4IIE) cell line. […] General cytotoxicity was evaluated by monitoring membrane integrity, mitochondrial function, cell proliferation, oxidative stress, and apoptosis. […] The means of each exposure group (n=3-7) were calculated for each assay performed. […]
Quantity Name: CC50 at 24 h

Would you please look over these solved cases?
>>> observed_measurement("Nc1nc(NC2CC2)c2ncn([C@H]3C=C[C@@H](CO)C3)c2n1")
"> 300 µM"
>>> observed_measurement("O=C1c2c(O)ccc(O)c2C(=O)c2c(NCCNCCO)ccc(NCCNCCO)c21")
"> 300 µM"

Attention now shifts to the item below.
Request the reported CC50 at 24 h associated with COc1cccc2c1C(=O)c1c(O)c3c(c(O)c1C2=O)C[C@@](O)(C(=O)CO)C[C@@H]3O[C@H]1C[C@H](N)[C@@H](O)[C@H](C)O1 [EPIRUBICIN, epirubicin]
81 µM

---

System: H4IIE cells
Assay: MTT reduction
Format: cell-based, rat
Conditions: rat, 24 h
Quantity Name: CC50 (µM)
Give bare numbers, in µM.

Request the reported CC50 associated with `COc1cccc2c1C(=O)c1c(O)c3c(c(O)c1C2=O)C[C@@](O)(C(=O)CO)C[C@@H]3O[C@H]1C[C@H](N)[C@H](O)[C@H](C)O1`
26

---

Test: Solubility in culture medium (nephelometry)
Format: physicochemical
Settings: 37 °C, plasma or biological fluid, kinetic from dmso stock, dosing medium, 37° C.; HUVEC 24 HR; read-out: Highest Soluble Concentration
Quantity Name: solubility

Request the reported solubility associated with `C=C(C)[C@H]1Cc2c(ccc3c2O[C@@H]2COc4cc(OC)c(OC)cc4[C@@H]2C3=O)O1`
10 µM

---

Can you tell me CC50 at 24 h for the items I'm about to list?
Assay: MemTox membrane leakage (AK / α-GST)
Type: cell-based
Details: rat, NRK cells, 24 HR, read-out: GST TC50

>>> observed_measurement("CC[C@@]1(O)C(=O)OCc2c1cc1n(c2=O)Cc2cc3ccccc3nc2-1")
"100 µM"

Request the reported CC50 at 24 h associated with `C=C(C)[C@H]1Cc2c(ccc3c2O[C@@H]2COc4cc(OC)c(OC)cc4[C@@H]2C3=O)O1`
10 µM

---

Tested on: rat cardiomyocytes
Test: Intracellular total glutathione (GSH)
Type: cell-based
Quantity Name: CC50

Request the reported CC50 associated with Cc1cn([C@H]2C[C@H](N=[N+]=[N-])[C@@H](CO)O2)c(=O)[nH]c1=O [AZT]
> 300 µM

---

Assay: Intracellular ATP levels
Type: cell-based
Conditions: human hepatocytes, read-out: ATP TC50
Quantity Name: CC50 at 24 h (µM)
Answers are plain numbers, in µM.

Request the reported CC50 at 24 h associated with `C=C(C)[C@H]1Cc2c(ccc3c2O[C@@H]2COc4cc(OC)c(OC)cc4[C@@H]2C3=O)O1`
6

---

Experiment: MTT reduction
Details: human, SK-MEL28 cells, MTT TC50, SK-MEL28, 24 HR
Quantity Name: CC50 at 24 h (µM)
One number for each entry, in µM.

Request the reported CC50 at 24 h associated with CC[C@@]1(O)C(=O)OCc2c1cc1n(c2=O)Cc2cc3ccccc3nc2-1 [CAMPTOTHECIN, Camptothecin]
241

---

Assay: Solubility in culture medium (nephelometry)
Assay type: physicochemical
Details: 37 °C, plasma or biological fluid, kinetic from dmso stock, culture media containing 20% serum; NRK 6 HR; read-out: Highest Soluble Concentration
Quantity Name: solubility (µM)
Give bare numbers, in µM.

Request the reported solubility associated with `C=C(C)[C@H]1Cc2c(ccc3c2O[C@@H]2COc4cc(OC)c(OC)cc4[C@@H]2C3=O)O1`
10

---

Can you tell me CC50 at 24 h for the items I'm about to list?
Assay: Intracellular total glutathione (GSH)
Assay type: cell-based, rat
Details: rat
Numbers only, in µM.

>>> observed_measurement("COc1cccc2c1C(=O)c1c(O)c3c(c(O)c1C2=O)C[C@@](O)(C(=O)CO)C[C@@H]3O[C@H]1C[C@H](N)[C@H](O)[C@H](C)O1")
1
>>> observed_measurement("Cc1ccnc2c1NC(=O)c1cccnc1N2C1CC1")
251
>>> observed_measurement("O=C1Nc2ccc(Cl)cc2[C@@](C#CC2CC2)(C(F)(F)F)O1")
83

Attention now shifts to the item below.
Request the reported CC50 at 24 h associated with `Cc1cccc(C)c1OCC(=O)N[C@@H](Cc1ccccc1)[C@@H](O)C[C@H](Cc1ccccc1)NC(=O)[C@H](C(C)C)N1CCCNC1=O`
69

---

Test system: P-glycoprotein (PgP)
Assay: P-glycoprotein (PgP) binding: MTT with and without cyclosporin A
Format: cell-based, rat
Conditions: H4IIE 24 HR, MTT, 50 μM, with cyclosporin A
Can you tell me % Control (Compound + CSA) for the items I'm about to list?
Numbers only, in %.

Batch of 4 molecules: report % Control (Compound + CSA) for each.
1. O=C1Nc2ccc(Cl)cc2[C@@](C#CC2CC2)(C(F)(F)F)O1
2. Nc1nc(NC2CC2)c2ncn([C@H]3C=C[C@@H](CO)C3)c2n1
3. Cc1cn([C@H]2C[C@H](N=[N+]=[N-])[C@@H](CO)O2)c(=O)[nH]c1=O
4. COc1cccc2c1C(=O)c1c(O)c3c(c(O)c1C2=O)C[C@@](O)(C(=O)CO)C[C@@H]3O[C@H]1C[C@H](N)[C@H](O[C@@H]2CCCCO2)[C@H](C)O1

70.1
104.8
99.0
33.6
